From: PubChem BioAssay (NCATS)

Tested on: Tov112D
Test: Primary qHTS to identify gynecologic anti-cancer compounds using libraries of approved drugs and bioactive compounds (AID 1345084); further: nearly all actives have a fitted effect of over 55% in size
Conditions: Gynecologic cancer cell panel viability, ATPlite luminescence, 48 h; series mostly up to 57.5 µM
Records with an inconclusive call do not appear. Active and inactive are the calls of the source. The call rests on the fitted dose curve; in most records, active means well fitted cell-killing curve with a large enough effect; inconclusive means small, poorly fitted or top-dose-only effect, or effect the other way; inactive means flat fitted curve, though single readings scatter.
propertyName: outcome

Look over these answered cases.
INSERT INTO assay_data (molecule, propertyname, result) VALUES
  ('CC(C)Cn1cnc2c1c(=O)n(C)c(=O)n2C', 'outcome', 'inactive'),
  ('CCC1NC(=O)c2cc(S(N)(=O)=O)c(Cl)cc2N1 (stereo unspecified)', 'outcome', 'inactive'),
  ('Cc1ccc(O)c([C@H](CCN(C(C)C)C(C)C)c2ccccc2)c1', 'outcome', 'inactive'),
  ('O=C(NC1CCN(CCc2c[nH]c3ccccc23)CC1)c1ccccc1', 'outcome', 'inactive'),
  ('COc1ccc(S(=O)(=O)N2c3ccc(Cl)cc3[C@@](O)(c3ccccc3Cl)[C@H]2C(=O)N2CCC[C@@H]2C(N)=O)cc1OC', 'outcome', 'inactive');

Lab note: next molecule to report on.
Query string: Name the recorded outcome of the item `Nc1ccc(C(=O)NCC(=O)O)cc1` in your answer.
Result string: inactive

====

Target: Ubiquitin carboxyl-terminal hydrolase 1 (Homo sapiens) (UniProt O94782)
Sequence (O94782 whole entry, looked up): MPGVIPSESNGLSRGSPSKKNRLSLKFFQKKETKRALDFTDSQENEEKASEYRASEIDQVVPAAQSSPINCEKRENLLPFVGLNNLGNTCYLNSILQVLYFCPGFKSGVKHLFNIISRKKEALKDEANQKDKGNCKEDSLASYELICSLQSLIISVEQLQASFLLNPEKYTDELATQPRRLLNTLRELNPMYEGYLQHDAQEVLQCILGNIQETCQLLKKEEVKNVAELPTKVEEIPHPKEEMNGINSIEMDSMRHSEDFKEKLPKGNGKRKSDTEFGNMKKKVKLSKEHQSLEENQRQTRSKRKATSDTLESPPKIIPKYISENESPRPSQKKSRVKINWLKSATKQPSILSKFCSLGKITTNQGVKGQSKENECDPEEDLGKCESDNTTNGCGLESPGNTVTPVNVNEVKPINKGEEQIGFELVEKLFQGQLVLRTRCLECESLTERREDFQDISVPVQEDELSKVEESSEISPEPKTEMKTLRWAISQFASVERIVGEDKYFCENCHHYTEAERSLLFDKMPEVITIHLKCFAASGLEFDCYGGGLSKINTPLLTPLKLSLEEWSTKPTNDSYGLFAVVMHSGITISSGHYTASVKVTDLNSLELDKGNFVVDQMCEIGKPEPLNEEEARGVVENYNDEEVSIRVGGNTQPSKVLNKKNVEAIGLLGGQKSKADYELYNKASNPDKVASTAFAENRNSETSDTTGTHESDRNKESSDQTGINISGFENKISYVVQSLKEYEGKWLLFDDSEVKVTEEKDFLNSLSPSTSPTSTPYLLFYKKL
Test: Inhibitors of USP1/UAF1: Pilot qHTS (AID 504865); further: nearly all actives have a fitted effect of over 35% in size
Details: purified USP1/UAF1, Ub-rhodamine cleavage fluorescence; series mostly up to 114 µM
Results filed as inconclusive are left out. Calls of active or inactive are those of the source. The call rests on the fitted dose curve; in most records, active means well fitted inhibition curve with a large enough effect; inconclusive means small, poorly fitted or top-dose-only effect; inactive means flat fitted curve, though single readings scatter.
Choose the fitting class; nothing outside y for active, n for inactive is accepted.

Query string: Record lookup: outcome of this test for `Cc1ccc2c(Br)cc(Br)c(O)c2n1` ?
Result string: n

Query string: Record lookup: outcome of this test for `CC(C)=CCOc1ccc(/C=C/C(=O)c2ccc(OCC=C(C)C)cc2OCC(=O)O)cc1` ?
Result string: y

Query string: Record lookup: outcome of this test for `COc1ccccc1N1CCN(CCCCNC(=O)c2ccc(-c3ccc(C(C)=O)cc3)cc2)CC1` ?
Result string: n

Query string: Record lookup: outcome of this test for `CO[C@]12C[C@@H](COC(=O)c3cncc(Br)c3)CN(C)[C@@H]1Cc1cn(C)c3cccc2c13` ?
Result string: n

Query string: Record lookup: outcome of this test for `CC(=O)NCCCCCC(=O)O` ?
Result string: n

Query string: Record lookup: outcome of this test for `CN(C)C(=O)Nc1ccc(Cl)c(Cl)c1` ?
Result string: n

Query string: Record lookup: outcome of this test for `Cc1cc(CC(=O)O)c(C)n1-c1ccc(Cl)cc1` ?
Result string: n

Query string: Record lookup: outcome of this test for `OCc1ccccn1` ?
Result string: n

Query string: Record lookup: outcome of this test for CCCCC(CC)CN1CN(CC(CC)CCCC)CC(C)(N)C1 (stereo unspecified) ?
Result string: n

Query string: Record lookup: outcome of this test for `CC(=O)OC[C@H]1O[C@@H](n2ncc(=O)[nH]c2=O)[C@H](OC(C)=O)[C@@H]1OC(C)=O` ?
Result string: n

Query string: Record lookup: outcome of this test for `CCN(CC)CCNc1ccc(CO)c2sc3ccccc3c(=O)c12` ?
Result string: n

Query string: Record lookup: outcome of this test for Cc1cc(C)cc(OCC2CNC(=O)O2)c1 (stereo unspecified) ?
Result string: n

Query string: Record lookup: outcome of this test for `CN1CCN(c2cc3c(cc2F)c(=O)c(C(=O)O)cn3-c2ccc(F)cc2)CC1` ?
Result string: n

Query string: Record lookup: outcome of this test for CCC(C(=O)OCCOCCN(CC)CC)c1ccccc1 (stereo unspecified) ?
Result string: n

Query string: Record lookup: outcome of this test for CC(C)(Cc1c[nH]c2ccccc12)NCC(O)COc1ccccc1C#N (stereo unspecified) ?
Result string: n

Query string: Record lookup: outcome of this test for `CCN(CC)CCOc1ccccc1C(=O)CCc1ccccc1` ?
Result string: n

Query string: Record lookup: outcome of this test for `CC(C)Nc1cccnc1N1CCN(C(=O)c2cc3cc(NS(C)(=O)=O)ccc3[nH]2)CC1` ?
Result string: n

Query string: Record lookup: outcome of this test for `CCCCCCCCCCCCCC(=O)OC(C)C` ?
Result string: n

Query string: Record lookup: outcome of this test for CC(C)CCCC(C)N (stereo unspecified) ?
Result string: n

Query string: Record lookup: outcome of this test for `CCOC(=O)[C@H](CCc1ccccc1)N[C@@H](C)C(=O)N1[C@H](C(=O)O)C[C@H]2CCCC[C@@H]21` ?
Result string: n

Query string: Record lookup: outcome of this test for `Cc1ncc(CO)c(C=O)c1O` ?
Result string: n

Query string: Record lookup: outcome of this test for CCC(Cc1c(I)cc(I)c(N)c1I)C(=O)O (stereo unspecified) ?
Result string: n

Query string: Record lookup: outcome of this test for `O=C(O)Cc1csc(-c2ccc(Cl)cc2)n1` ?
Result string: n

Query string: Record lookup: outcome of this test for `COc1ccc(/C=N/NC(=O)c2ccncc2)cc1OC` ?
Result string: n

Query string: Record lookup: outcome of this test for `COc1cc(NS(=O)(=O)c2ccc(N)cc2)ncn1` ?
Result string: n

Query string: Record lookup: outcome of this test for `CC(=O)Nc1ccc(S(=O)(=O)Nc2ccc([N+](=O)[O-])cc2)cc1` ?
Result string: n

Query string: Record lookup: outcome of this test for `O=C(O)C1(C(=O)O)CCC1.[NH2-].[NH2-].[Pt+2]` ?
Result string: n

Query string: Record lookup: outcome of this test for O=C(O)C(Cc1cc(I)c(O)c(I)c1)c1ccccc1 (stereo unspecified) ?
Result string: n

Query string: Record lookup: outcome of this test for `O=C(NC1CCN(CCc2c[nH]c3ccccc23)CC1)c1ccccc1` ?
Result string: n

Query string: Record lookup: outcome of this test for `COc1cc(O)c(C(=O)c2ccccc2)cc1S(=O)(=O)O` ?
Result string: n

Query string: Record lookup: outcome of this test for `CCc1oc2ccccc2c1C(=O)c1cc(I)c(O)c(I)c1` ?
Result string: y

Query string: Record lookup: outcome of this test for `C[N+]1(C)CCC(=C(c2ccccc2)c2ccccc2)CC1` ?
Result string: n

Query string: Record lookup: outcome of this test for `CC(=O)Nc1ccc(CC(=O)O)cc1` ?
Result string: n

Query string: Record lookup: outcome of this test for `COc1ccc(CN(CCN(C)C)c2ncccn2)cc1` ?
Result string: n

Query string: Record lookup: outcome of this test for `CC(=O)N[C@@H](CCC(=O)O)C(=O)O` ?
Result string: n

Query string: Record lookup: outcome of this test for `CNCCc1ccccn1` ?
Result string: n

Query string: Record lookup: outcome of this test for `Cc1cc(-c2ccccc2)nnc1NCCN1CCOCC1` ?
Result string: n

Query string: Record lookup: outcome of this test for `O[C@@H](c1cc(C(F)(F)F)nc2c(C(F)(F)F)cccc12)[C@H]1CCCCN1` ?
Result string: n

Query string: Record lookup: outcome of this test for CN(C)CCOC(=O)C(c1ccccc1)C1(O)CCCC1 (stereo unspecified) ?
Result string: n

Query string: Record lookup: outcome of this test for `C#C[C@]1(O)CC[C@H]2[C@@H]3CCc4cc(OC)ccc4[C@H]3CC[C@@]21C` ?
Result string: n

Query string: Record lookup: outcome of this test for `O=C(Oc1cccc2cccnc12)c1ccccc1` ?
Result string: n

Query string: Record lookup: outcome of this test for `CC(=O)Oc1ccc(C)cc1` ?
Result string: n

Query string: Record lookup: outcome of this test for `COc1cc(C(=S)N2CCOCC2)ccc1O` ?
Result string: n

Query string: Record lookup: outcome of this test for `Cc1ccc(S(=O)(=O)NC(=O)NC2CCCC2)cc1` ?
Result string: n

Query string: Record lookup: outcome of this test for `O=C(NCCc1c[nH]c2ccccc12)c1cccnc1` ?
Result string: n

Query string: Record lookup: outcome of this test for CCC1Nc2cc(Cl)c(S(N)(=O)=O)cc2S(=O)(=O)N1 (stereo unspecified) ?
Result string: n

Query string: Record lookup: outcome of this test for `CN1CCC(OC(c2ccccc2)c2ccccc2)CC1` ?
Result string: n

Query string: Record lookup: outcome of this test for `C=CCN1CCc2nc(N)sc2CC1` ?
Result string: n

Query string: Record lookup: outcome of this test for `CCOC(=O)c1c(N)sc2c1CCN(Cc1ccccc1)C2` ?
Result string: n

Query string: Record lookup: outcome of this test for `NCCNc1cccc2ccccc12` ?
Result string: n

Query string: Record lookup: outcome of this test for CC(C(=O)O)c1cccc(Oc2ccccc2)c1 (stereo unspecified) ?
Result string: n

====

System: N140
Experiment: qHTS profiling for inhibitors of Plasmodium falciparum proliferation (AID 504749); further: nearly all actives have a fitted effect of over 60% in size
Conditions: P. falciparum in erythrocytes, SYBR Green DNA, 72 h; series mostly up to 28.7 µM
Experimental: NIH National Institute of Allergy and Infectious Diseases [NIAID] NIH Chemical Genomics Center [NCGC] […] Because mature erythrocytes lack DNA, only Plasmodium-derived DNA is detected. NCGC Assay Protocol Summary: The SYBR Green viability assay was adapted from a method described previously (Plouffe et al., 2008). […] The following morning, fluorescence intensity at 485(14) nm excitation and 535(25) nm emission wavelengths was measured on an EnVision (Perkin Elmer) plate reader. […]
Inconclusive results are not listed. Calls of active or inactive are those of the source. The call rests on the fitted dose curve; in most records, active means well fitted inhibition curve with a large enough effect; inconclusive means small, poorly fitted or top-dose-only effect; inactive means flat fitted curve, though single readings scatter.
propertyName: outcome

INSERT INTO measurements (molecule, result) VALUES
  ('O=C(Nc1ccc([N+](=O)[O-])cc1)Nc1ccc([N+](=O)[O-])cc1', 'inactive'),
  ('COc1ccccc1N1CCN(CCCCNC(=O)c2ccc(-c3ccc(C(C)=O)cc3)cc2)CC1', 'inactive'),
  ('C#C[C@]1(O)CC[C@H]2[C@@H]3CCC4=Cc5oncc5C[C@]4(C)[C@H]3CC[C@@]21C', 'inactive');
